Taken from ChEMBL document CHEMBL1128641.

molecular target: Angiotensin II receptor (Rattus norvegicus) (UniProt P29089+P25095+P35351); assay: Effect on pressure response to angiotensin II receptor (AII) after (i.v.) administration of 1 mg/kg in anesthetized, ganglion blocked, A II- infused rat was determined in vivo; assay type: functional, organism-based; design: dose 1 mg/kg; settings: at 1 mg/kg
MEASURED PARAMETER: inhibition (%)

| STRUCTURE AS SMILES | inhibition, % |
| --- | --- |
| CCCCc1nc(C)nc(O)c1Cc1ccc(-c2ccccc2-c2nn[nH]n2)cc1 | 87 |

a = CCCCc1nc(C)n(Cc2ccccc2C(=O)O)c(=O)c1Cc1ccc(-c2ccccc2C(=O)O)cc1
b = CCCCc1ncn(Cc2cccs2)c(=O)c1Cc1ccc(-c2ccccc2C(=O)O)cc1
Lab note: check whether a or b shows the higher recorded inhibition. Response format: the label of the selected entry.
a
(a: 46%, b: 23%)

* * *

test system: Rattus norvegicus; experiment: Time duration was determined from onset of the action till no response after […] administration of 1 mg/kg in anesthetized, ganglion blocked, A II- infused rat; type: functional
MEASURED PARAMETER: Duration (min)
Your answer should be a plain number; it is taken to be in min.

# annotated cases, reported Duration shown
| STRUCTURE AS SMILES | SYSTEM NAME | Duration / min |
| --- | --- | --- |
| CCCCc1nc(C)n(Cc2cccs2)c(=O)c1Cc1ccc(-c2ccccc2-c2nnn[nH]2)cc1 | Rattus norvegicus | 60 |
| CCCCc1nc(Cl)c(CO)n1Cc1ccc(-c2ccccc2-c2nnn[nH]2)cc1 | Rattus norvegicus | 120 |
| CCCCc1nc(C)n(Cc2occc2C(=O)O)c(=O)c1Cc1ccc(-c2ccccc2-c2nn[nH]n2)cc1 | Rattus norvegicus | 75 |

Fill in: Duration of CCCCc1nc(C)n(Cc2ccccc2)c(=O)c1Cc1ccc(-c2ccccc2-c2nn[nH]n2)cc1 is ___
60

* * *

target: Angiotensin II receptor (Rattus norvegicus) (UniProt P29089+P25095+P35351); test: Effect on pressure response to angiotensin II receptor (AII) after […] administration of 1 mg/kg in anesthetized, ganglion blocked, A II- infused rat was determined in vivo; assay type: functional, organism-based; parameters: dose 1 mg/kg
MEASURED PARAMETER: ED50 (mg/kg)

# annotated cases, reported ED50 shown
| STRUCTURE AS SMILES | SCALE UNIT | ED50 |
| --- | --- | --- |
| CCCCc1nc(Cl)c(CO)n1Cc1ccc(-c2ccccc2-c2nnn[nH]2)cc1 | mg/kg | 3.7 |
| CCCCc1nc(C)n(Cc2ccccc2C(=O)O)c(=O)c1Cc1ccc(-c2ccccc2-c2nn[nH]n2)cc1 | mg/kg | 4.2 |
| CCCCc1nc(C)n(Cc2occc2C(=O)OC)c(=O)c1Cc1ccc(-c2ccccc2-c2nn[nH]n2)cc1 | mg/kg | 1.44 |

1 = CCCCc1nc(C)n(Cc2sccc2C(=O)O)c(=O)c1Cc1ccc(-c2ccccc2-c2nn[nH]n2)cc1
2 = CCCCc1nc(C)n(Cc2occc2C(=O)O)c(=O)c1Cc1ccc(-c2ccccc2-c2nn[nH]n2)cc1
3 = CCCCc1nc(C)n(Cc2ccsc2C(=O)OC)c(=O)c1Cc1ccc(-c2ccccc2-c2nn[nH]n2)cc1
Arrange these compounds by their ED50, starting with the largest number. Rank them, then answer with their labels in that order.
2, 1, 3
